B1: library; numbered along this chain (parent)
chain: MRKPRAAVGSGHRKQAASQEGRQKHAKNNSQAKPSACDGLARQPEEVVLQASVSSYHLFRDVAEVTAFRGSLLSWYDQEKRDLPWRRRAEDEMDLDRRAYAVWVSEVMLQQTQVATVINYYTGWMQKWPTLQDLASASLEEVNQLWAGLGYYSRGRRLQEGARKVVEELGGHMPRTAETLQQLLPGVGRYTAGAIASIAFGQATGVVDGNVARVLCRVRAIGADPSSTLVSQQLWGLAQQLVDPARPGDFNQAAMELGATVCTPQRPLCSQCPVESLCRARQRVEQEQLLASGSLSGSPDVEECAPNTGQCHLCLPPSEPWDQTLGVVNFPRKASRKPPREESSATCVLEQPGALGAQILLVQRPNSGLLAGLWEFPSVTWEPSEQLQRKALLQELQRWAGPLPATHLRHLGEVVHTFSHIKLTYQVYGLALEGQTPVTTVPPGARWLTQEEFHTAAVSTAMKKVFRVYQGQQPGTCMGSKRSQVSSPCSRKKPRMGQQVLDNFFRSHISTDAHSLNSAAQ

# Variants of: B1
# run.description: 8OG:A repair function score (normalized; synonymous = 0, nonsense = -1) (normalized log-likelihood score); higher = more repair activity (WT-like);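 also: cells sorted at 72 h after reporter transfection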
# measurement.setup: with 8OG:A DNA repair reporter (GFP) in HEK-293 MUTYH KO cells
measurement.label: 8OG:A repair function score
One number for each entry.

{"alteration": "V274C", "measurement.label": "8OG:A repair function score", "observed.result": -0.176}

# per-item lookup of 8OG:A repair function score; items listed below
1. E451M
2. G429T
3. Q182P
4. Q426T

## Output
1: 0.0404; 2: -0.219; 3: -0.18; 4: -0.247

For every item in the list below, what is its measured 8OG:A repair function score?
1. L403S
2. P34D
3. E140P
4. L325D

## Output
1. -0.428
2. 0.128
3. -0.438
4. -0.204

Hey, can you go through the list below and give me 8OG:A repair function score for every item?
1. G201I
2. A192R
3. M255L
4. T436F
5. L290H
6. A253I
7. Q144T
8. H514G

## Output
[-0.543, -0.901, -0.962, -0.0267, -0.0116, -1.02, -0.0237, 0.0114]

# return 8OG:A repair function score for each item in the list
1. P437C
2. A6T
3. Y120D
4. S378E
5. P174R

## Output
-0.244
0.0379
-0.428
-0.297
-0.877
